Experimental Endpoint: melting point

[[record]]
compound = "O=C(O)C(Cn1ccc(C(F)(F)F)n1)NC1CC1 (stereo not given)"
experimental_endpoint = "melting point"
endpoint_result = "175 to 177 °C"

[[record]]
compound = "CC(C)(C)n1cc(C#N)c(N)n1"
experimental_endpoint = "melting point"
endpoint_result = "121 to 123 °C"

[[record]]
compound = "N#CCc1cccc(C(N)=O)c1"
experimental_endpoint = "melting point"
endpoint_result = "157 to 159 °C"

[[record]]
compound = "CC(=O)NCc1cccc(Br)c1"
experimental_endpoint = "melting point"
endpoint_result = "75 to 77 °C"

[[record]]
compound = "Nc1ncn(Cc2ccncc2)n1"
experimental_endpoint = "melting point"
endpoint_result = "156 to 158 °C"

[[record]]
compound = "CC(C)(C)NS(=O)(=O)c1cccc(N)c1"
experimental_endpoint = "melting point"
endpoint_result = "137 to 139 °C"

[[record]]
compound = "Cc1nc(S)sc1CC(=O)O"
experimental_endpoint = "melting point"
endpoint_result = "205 to 207 °C"

[[record]]
compound = "O=C(O)CCc1cscn1"
experimental_endpoint = "melting point"
endpoint_result = "156 to 158 °C"

[[record]]
compound = "Cc1oncc1C(=O)NCC(=O)O"
experimental_endpoint = "melting point"
endpoint_result = "144 to 146 °C"

[[record]]
compound = "COc1cccc(NCC(=O)NN)c1"
experimental_endpoint = "melting point"
endpoint_result = "108 to 112 °C"

[[record]]
compound = "CCCCCn1cc(C(=O)O)c2ccccc21"
experimental_endpoint = "melting point"
endpoint_result = "97 to 99 °C"

[[record]]
compound = "CC(C)(O)c1cnc(Cl)nc1"
experimental_endpoint = "melting point"
endpoint_result = "98 to 100 °C"

[[record]]
compound = "Clc1cc(Cl)c(SSc2cc(Cl)c(Cl)cc2Cl)cc1Cl"
experimental_endpoint = "melting point"
endpoint_result = "140 to 144 °C"

[[record]]
compound = "Cc1cc(C(=O)Cl)sc1C"
experimental_endpoint = "melting point"
endpoint_result = "59 to 61 °C"

[[record]]
compound = "O=C(O)c1ccc(Sc2ccc(Cl)cc2)cc1"
experimental_endpoint = "melting point"
endpoint_result = "203 to 205 °C"

[[record]]
compound = "NC(Cn1cnc2ccccc21)c1ccc(F)cc1 (stereo not given)"
experimental_endpoint = "melting point"
endpoint_result = "86 to 88 °C"

[[record]]
compound = "C=CCC(NC(=O)OCc1ccccc1)c1ccccc1 (stereo not given)"
experimental_endpoint = "melting point"
endpoint_result = "65 to 67 °C"

[[record]]
compound = "NNC(=O)C(=O)NC1CC1"
experimental_endpoint = "melting point"
endpoint_result = "181 to 183 °C"

[[record]]
compound = "Cc1nnc(CO)n1C"
experimental_endpoint = "melting point"
endpoint_result = "155 to 157 °C"

[[record]]
compound = "O=C(O)c1cccc(OCc2ccccc2)c1"
experimental_endpoint = "melting point"
endpoint_result = "113 to 115 °C"

[[record]]
compound = "CCCC1CCc2nc(N)sc2C1 (stereo not given)"
experimental_endpoint = "melting point"
endpoint_result = "78 to 80 °C"

[[record]]
compound = "N#Cc1ccccc1CN1C(=O)CCC1=O"
experimental_endpoint = "melting point"
endpoint_result = "122 to 124 °C"

[[record]]
compound = "O=C(Nc1cccc(NC(=O)c2ccco2)c1)OCC(F)(F)F"
experimental_endpoint = "melting point"
endpoint_result = "167 to 169 °C"

[[record]]
compound = "O=S(=O)(NC1=NCCN1)c1cccs1"
experimental_endpoint = "melting point"
endpoint_result = "173 to 175 °C"

[[record]]
compound = "CCOC(=O)c1csc(NC2CC2)n1"
experimental_endpoint = "melting point"
endpoint_result = "89 to 91 °C"

[[record]]
compound = "N#Cc1ccnc(-n2cncn2)c1"
experimental_endpoint = "melting point"
endpoint_result = "149 to 151 °C"

[[record]]
compound = "NC(=O)c1cccnc1NC1CCN(Cc2ccccc2)CC1"
experimental_endpoint = "melting point"
endpoint_result = "73 to 75 °C"

[[record]]
compound = "ClCc1ccc(-c2ccccc2)cc1"
experimental_endpoint = "melting point"
endpoint_result = "71 to 73 °C"

[[record]]
compound = "Cc1csc(-c2cccc(N)c2)n1"
experimental_endpoint = "melting point"
endpoint_result = "82 to 84 °C"

[[record]]
compound = "O=C(CCl)c1c(-c2ccc(F)cc2)[nH]c2ccccc12"
experimental_endpoint = "melting point"
endpoint_result = "158 to 160 °C"

[[record]]
compound = "Nc1nnc(-c2ccc3c(c2)CCC3)o1"
experimental_endpoint = "melting point"
endpoint_result = "273 to 275 °C"

[[record]]
compound = "CC(C)CC(NS(C)(=O)=O)C(=O)O (stereo not given)"
experimental_endpoint = "melting point"
endpoint_result = "67 to 69 °C"

[[record]]
compound = "O=C(CCl)Nc1ccnn1C1CCCC1"
experimental_endpoint = "melting point"
endpoint_result = "76 to 78 °C"

[[record]]
compound = "O=c1[nH]cnc2cc(F)c(F)cc12"
experimental_endpoint = "melting point"
endpoint_result = "264 to 266 °C"

[[record]]
compound = "CN(C)c1cc(C(=O)O)cc(Cl)n1"
experimental_endpoint = "melting point"
endpoint_result = "194 to 196 °C"

[[record]]
compound = "O=C(O)c1cccc(N2C(=O)C=CC2=O)c1"
experimental_endpoint = "melting point"
endpoint_result = "231 to 233 °C"

[[record]]
compound = "N#Cc1cccnc1-n1cccn1"
experimental_endpoint = "melting point"
endpoint_result = "114 to 116 °C"

[[record]]
compound = "COc1c(Br)cc(Cl)cc1S(=O)(=O)Cl"
experimental_endpoint = "melting point"
endpoint_result = "68 to 70 °C"

[[record]]
compound = "Sc1n[nH]c(C2CC2)n1"
experimental_endpoint = "melting point"
endpoint_result = "235 to 237 °C"

[[record]]
compound = "O=C(O)Cc1ccc(S(=O)(=O)N2CCCCC2)s1"
experimental_endpoint = "melting point"
endpoint_result = "81 to 83 °C"

[[record]]
compound = "COc1ccc(Cl)cc1/C=C/C(=O)O"
experimental_endpoint = "melting point"
endpoint_result = "199 to 201 °C"

[[record]]
compound = "COc1ccc(NC(=O)C(C)Cl)c(OC)c1 (stereo not given)"
experimental_endpoint = "melting point"
endpoint_result = "65 to 67 °C"

[[record]]
compound = "O=C(O)/C=C/c1cc(C(F)(F)F)ccc1Cl"
experimental_endpoint = "melting point"
endpoint_result = "147 to 149 °C"

[[record]]
compound = "C#CCNS(=O)(=O)c1ccc(C(=O)O)cc1"
experimental_endpoint = "melting point"
endpoint_result = "149 to 151 °C"

[[record]]
compound = "O=C(O)C1CC1c1cccc2ccccc12 (stereo not given)"
experimental_endpoint = "melting point"
endpoint_result = "116 to 118 °C"

[[record]]
compound = "O=C(O)/C=C/c1ccc(F)cc1[N+](=O)[O-]"
experimental_endpoint = "melting point"
endpoint_result = "176 to 178 °C"

[[record]]
compound = "Cc1cc(C(=O)O)nn1-c1ccc(Br)cc1"
experimental_endpoint = "melting point"
endpoint_result = "211 to 213 °C"

[[record]]
compound = "COc1c(C(=O)O)c(C)nn1C"
experimental_endpoint = "melting point"
endpoint_result = "172 to 174 °C"

[[record]]
compound = "Nn1cn[nH]c1=O"
experimental_endpoint = "melting point"
endpoint_result = "169 to 171 °C"

[[record]]
compound = "O=C(O)c1ccc(NS(=O)(=O)c2ccc(F)cc2)cc1"
experimental_endpoint = "melting point"
endpoint_result = "240 to 242 °C"

[[record]]
compound = "COc1cccc(-c2cc(N)n(CCO)n2)c1"
experimental_endpoint = "melting point"
endpoint_result = "148 to 150 °C"

[[record]]
compound = "C=CCS(N)(=O)=O"
experimental_endpoint = "melting point"
endpoint_result = "31 to 33 °C"

[[record]]
compound = "Cc1ccc(S(=O)(=O)c2ccc(CBr)cc2)cc1"
experimental_endpoint = "melting point"
endpoint_result = "137 to 139 °C"

[[record]]
compound = "N#CCCn1cc(/C=C/C(=O)O)c2ccccc21"
experimental_endpoint = "melting point"
endpoint_result = "188 to 192 °C"

[[record]]
compound = "Clc1ccc(C2CNCCO2)cc1 (stereo not given)"
experimental_endpoint = "melting point"
endpoint_result = "55 to 57 °C"

